- TARGET OF ASSAY: Acetylcholinesterase (Homo sapiens, UniProt P22303)
- Sequence (P22303 whole entry): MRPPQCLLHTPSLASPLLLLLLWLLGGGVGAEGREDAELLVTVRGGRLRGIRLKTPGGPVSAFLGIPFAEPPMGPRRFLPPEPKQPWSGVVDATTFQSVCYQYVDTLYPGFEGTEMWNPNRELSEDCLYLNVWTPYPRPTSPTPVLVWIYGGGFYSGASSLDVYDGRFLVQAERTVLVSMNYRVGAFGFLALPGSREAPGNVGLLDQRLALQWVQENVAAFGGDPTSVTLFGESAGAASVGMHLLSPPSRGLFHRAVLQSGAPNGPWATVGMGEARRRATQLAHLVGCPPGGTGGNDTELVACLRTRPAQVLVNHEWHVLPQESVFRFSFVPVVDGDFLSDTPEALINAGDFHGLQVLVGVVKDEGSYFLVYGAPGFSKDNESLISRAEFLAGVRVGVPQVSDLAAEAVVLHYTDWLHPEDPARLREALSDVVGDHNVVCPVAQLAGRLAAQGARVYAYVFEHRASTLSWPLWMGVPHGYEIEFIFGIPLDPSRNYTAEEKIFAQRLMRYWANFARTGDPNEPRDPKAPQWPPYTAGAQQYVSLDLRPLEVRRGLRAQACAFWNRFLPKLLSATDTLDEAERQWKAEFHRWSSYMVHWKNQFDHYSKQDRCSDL
MEASURED ENDPOINT: pIC50
Answers are plain numbers, as −log10 of the molar value.

[ask] Name the reported pIC50 value associated with the compound COc1ccc(C2c3c(nc4c(c3N)CCCC4)Oc3ccc4ccccc4c32)cc1OC (racemic)
[reply] 7.08

* * *

- TARGET OF ASSAY: UniProt O42275
Exercise: for every item that follows, state its recorded IC50.
Numbers only, in µM.

Example entries and their recorded answers appear below.
SMILES NOTATION: CCOC(=O)c1c(C)nc2nc3c(c(N)c2c1-c1ccc([N+](=O)[O-])cc1)CCCCC3
UNIT OF MEASURE: µM
IC50: 14

SMILES NOTATION: CCOC(=O)c1c(C)nc2nc3c(c(N)c2c1-c1ccc(F)cc1)CCCC3
UNIT OF MEASURE: µM
IC50: 0.7

SMILES NOTATION: CCOC(=O)c1c(C)nc2nc3c(c(N)c2c1-c1cccc([N+](=O)[O-])c1)CCCC3
UNIT OF MEASURE: µM
IC50: 0.9

[ask] Name the reported IC50 value associated with the molecule CCOC(=O)c1c(C)nc2nc3c(c(N)c2c1-c1ccc(Cl)cc1)CCCCC3
[reply] 19

* * *

- TARGET OF ASSAY: Cholinesterase (Homo sapiens, UniProt P06276)
- Sequence (P06276 whole entry): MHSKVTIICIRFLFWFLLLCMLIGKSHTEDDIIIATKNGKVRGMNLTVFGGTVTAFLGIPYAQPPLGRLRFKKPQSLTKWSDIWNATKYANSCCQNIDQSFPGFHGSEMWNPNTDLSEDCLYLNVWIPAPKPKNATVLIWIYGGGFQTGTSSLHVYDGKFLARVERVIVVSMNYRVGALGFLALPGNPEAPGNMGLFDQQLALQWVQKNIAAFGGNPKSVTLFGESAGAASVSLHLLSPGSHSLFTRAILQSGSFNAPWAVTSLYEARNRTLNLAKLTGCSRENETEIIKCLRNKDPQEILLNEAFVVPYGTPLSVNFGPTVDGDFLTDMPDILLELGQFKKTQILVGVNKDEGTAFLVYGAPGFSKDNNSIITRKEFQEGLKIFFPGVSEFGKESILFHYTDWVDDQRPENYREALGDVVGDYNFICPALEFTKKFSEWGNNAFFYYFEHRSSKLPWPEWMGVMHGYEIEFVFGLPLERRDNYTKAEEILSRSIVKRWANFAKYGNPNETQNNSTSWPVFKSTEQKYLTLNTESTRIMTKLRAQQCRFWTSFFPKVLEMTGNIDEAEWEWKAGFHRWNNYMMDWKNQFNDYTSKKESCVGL
- ASSAY INFO: Inhibition of human BuChE
MEASURED ENDPOINT: IC50
Hey, just the number and the unit after it is fine.

[ask] Name the reported IC50 value associated with the compound CCOC(=O)C1=C(C)Oc2nc3c(c(N)c2C1c1ccc(OC)cc1)CCCC3 (racemic)
[reply] 6.2 µM

* * *

- TARGET OF ASSAY: Acetylcholinesterase (Electrophorus electricus)
- Sequence (O42275 whole entry): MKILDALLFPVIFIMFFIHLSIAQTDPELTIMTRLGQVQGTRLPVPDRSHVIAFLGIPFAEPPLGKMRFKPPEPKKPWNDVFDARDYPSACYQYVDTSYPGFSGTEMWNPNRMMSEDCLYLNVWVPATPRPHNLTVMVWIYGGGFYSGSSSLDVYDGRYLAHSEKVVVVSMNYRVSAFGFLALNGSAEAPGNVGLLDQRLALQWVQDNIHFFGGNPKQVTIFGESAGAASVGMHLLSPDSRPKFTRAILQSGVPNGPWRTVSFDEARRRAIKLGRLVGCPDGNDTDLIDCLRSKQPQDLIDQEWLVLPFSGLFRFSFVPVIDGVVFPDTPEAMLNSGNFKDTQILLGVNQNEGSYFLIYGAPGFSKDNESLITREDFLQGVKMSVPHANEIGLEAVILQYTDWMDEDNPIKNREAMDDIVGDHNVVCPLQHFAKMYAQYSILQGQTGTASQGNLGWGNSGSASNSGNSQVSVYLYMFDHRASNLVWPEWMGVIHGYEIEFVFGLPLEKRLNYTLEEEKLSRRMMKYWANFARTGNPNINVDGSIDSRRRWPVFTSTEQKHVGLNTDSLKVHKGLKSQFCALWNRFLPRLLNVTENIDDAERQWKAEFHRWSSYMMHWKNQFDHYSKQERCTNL
Label key: True means IC50 under 6 µM; False means IC50 of 6 µM or more.

Illustrative cases are given below, each with its answer.
SMILES NOTATION: CCOC(=O)c1c(C)nc2nc3c(c(N)c2c1-c1ccccc1OC)CCCCC3
CLASS ASSIGNMENT: False
--
SMILES NOTATION: CCOC(=O)c1c(C)nc2nc3c(c(N)c2c1-c1cccc(OC)c1)CCCC3
CLASS ASSIGNMENT: True
--
SMILES NOTATION: CCOC(=O)c1c(C)nc2nc3c(c(N)c2c1-c1ccc(F)cc1)CCCCC3
CLASS ASSIGNMENT: True
--
SMILES NOTATION: CCOC(=O)c1c(C)nc2nc3c(c(N)c2c1-c1ccc(C)cc1)CCCCC3
CLASS ASSIGNMENT: False
--
SMILES NOTATION: CCOC(=O)c1c(C)nc2nc3c(c(N)c2c1-c1ccc(OC)c(OC)c1)CCCCC3
CLASS ASSIGNMENT: False
--
SMILES NOTATION: CCOC(=O)c1c(C)nc2nc3c(c(N)c2c1-c1ccc(OC)cc1)CCCCCC3
CLASS ASSIGNMENT: False
--
SMILES NOTATION: CCOC(=O)c1c(C)nc2nc3c(c(N)c2c1-c1ccc(OC)c(OC)c1)CCCC3
CLASS ASSIGNMENT: True
--
SMILES NOTATION: CCOC(=O)c1c(C)nc2nc3c(c(N)c2c1-c1ccc(Cl)cc1)CCCC3
CLASS ASSIGNMENT: True

[ask] Confirm or reject: IC50 of Cc1nc2nc3c(c(N)c2c(-c2ccccc2)c1C(=O)OC(C)C)CCCC3 lies strictly below 6 µM
[reply] True

[ask] Please give the result for CCOC(=O)c1c(C)nc2nc3c(c(N)c2c1-c1ccccc1)CCCCCC3 too.
[reply] False
